# System: 777334-354-R2-J4-PDC tumor spheroids with HUVEC/MSC, viability
# Method description: Anticancer human tumor 777334-354-R2-J4-PDC patient-derived pancreatic adenocarcinoma cell line growth inhibition [GQUAD]
# Applied conditions: second compound 1 µM; first compound 0.0316 µM; active compounds read low
# viability, T/C annotations

Worked examples follow.
CC(C)n1c(=O)n(C)c2cnc3cc(F)c(-c4ccc(OCCCN5CCCCC5)nc4)cc3c21 + Cc1[nH]c2ccc(F)cc2c1-c1nc2c3cccnc3c3ncccc3c2[nH]1 ... 90.8%
COc1ccc([C@@H](O)c2cc(-c3ncnc4cc(N5CCOCC5)ccc34)c(F)cc2Cl)nn1 + CN(C)c1ccc(Nc2c3ccc(NC(=O)CCN4CCCC4)cc3nc3cc(NC(=O)CCN4CCCC4)ccc23)cc1 ... 86.2%
O=c1[nH]cc(F)c(=O)[nH]1 + Cc1cnc(CNC(=O)c2c(=O)c3ccc(N4CCCN(C)CC4)nc3n3c2sc2ccccc23)cn1 ... 71.3%
COc1ncnc(C2CC2)c1-c1ncc2cnn(Cc3ccc(-c4nc(C(F)(F)F)cn4C(C)C)cc3)c2n1 + Cc1cnc(CNC(=O)c2c(=O)c3ccc(N4CCCN(C)CC4)nc3n3c2sc2ccccc23)cn1 ... 65.3%
Nc1ccn(C2OC(CO)C(O)C2(F)F)c(=O)n1 (centres undefined) + Cc1[nH]c2ccc(F)cc2c1-c1nc2c3cccnc3c3ncccc3c2[nH]1 ... 73.5%

The record that follows has no viability, T/C shown yet.
Query string: What does the record list as viability, T/C for CC[C@@]1(O)C(=O)OCc2c1cc1n(c2=O)Cc2cc3c(CN(C)C)c(O)ccc3nc2-1 + Cc1cnc(CNC(=O)c2c(=O)c3ccc(N4CCCN(C)CC4)nc3n3c2sc2ccccc23)cn1 ?
Result string: 69.5%

###

# Tested on: 777334-354-R2-J4-PDC tumor spheroids with HUVEC/MSC, viability
# Method description: Anticancer human tumor 777334-354-R2-J4-PDC cell line growth inhibition [GQUAD];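 further: spheroids exposed to compounds for 7 days before readout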
# Applied conditions: second compound 0.1 µM; first compound 1 µM; active compounds read low
# viability, T/C annotations
Just the number please, in %, no unit attached.

Worked examples follow.
CC1COCCN1c1cc(C2(O)CC3CCC(C2)O3)c2cnn(-c3ccn[nH]3)c2n1 (stereo not given) + Cc1[nH]c2ccc(F)cc2c1-c1nc2c3cccnc3c3ncccc3c2[nH]1 ... 36.5
COc1ccc([C@@H](O)c2cc(-c3ncnc4cc(N5CCOCC5)ccc34)c(F)cc2Cl)nn1 + Cc1cnc(CNC(=O)c2c(=O)c3ccc(N4CCCN(C)CC4)nc3n3c2sc2ccccc23)cn1 ... 57.9
Nc1ccn(C2OC(CO)C(O)C2(F)F)c(=O)n1 (stereo not given) + Cc1[nH]c2ccc(F)cc2c1-c1nc2c3cccnc3c3ncccc3c2[nH]1 ... 47.6

Query string: For the record CCCS(=O)(=O)Nc1ccc(F)c(C(=O)c2c[nH]c3ncc(-c4ccc(Cl)cc4)cc23)c1F + Cc1cnc(CNC(=O)c2c(=O)c3ccc(N4CCCN(C)CC4)nc3n3c2sc2ccccc23)cn1 , what value of viability, T/C is listed for 777334-354-R2-J4-PDC tumor spheroids with HUVEC/MSC, viability?
Result string: 95.5

Query string: For the record O=C(NO)c1cnc(N2CCN(S(=O)(=O)c3ccc4ccccc4c3)CC2)nc1 + Cc1[nH]c2ccc(F)cc2c1-c1nc2c3cccnc3c3ncccc3c2[nH]1 , what value of viability, T/C is listed for 777334-354-R2-J4-PDC tumor spheroids with HUVEC/MSC, viability?
Result string: 64.6

###

# Tested on: 777334-354-R2-J4-PDC tumor spheroids with HUVEC/MSC, viability
# Method description: Anticancer human tumor 777334-354-R2-J4-PDC cell line growth inhibition [GQUAD];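 further: spheroids exposed to compounds for 7 days before readout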
# Applied conditions: second compound 1 µM; first compound 0.00999 µM; active compounds read low
Recorded endpoint: viability, T/C (%)
Just the number please, in %, no unit attached.

Worked examples follow.
CC[C@@]1(O)C(=O)OCc2c1cc1n(c2=O)Cc2cc3c(CN(C)C)c(O)ccc3nc2-1 + CN(C)c1ccc(Nc2c3ccc(NC(=O)CCN4CCCC4)cc3nc3cc(NC(=O)CCN4CCCC4)ccc23)cc1 ... 100
CCc1c2c(nc3ccc(O)cc13)-c1cc3c(c(=O)n1C2)COC(=O)[C@]3(O)CC + CN(C)c1ccc(Nc2c3ccc(NC(=O)CCN4CCCC4)cc3nc3cc(NC(=O)CCN4CCCC4)ccc23)cc1 ... 38.8
CCc1c2c(nc3ccc(O)cc13)-c1cc3c(c(=O)n1C2)COC(=O)[C@]3(O)CC + Cc1[nH]c2ccc(F)cc2c1-c1nc2c3cccnc3c3ncccc3c2[nH]1 ... 34.9

The record that follows has no viability, T/C shown yet.
Query string: For the record Cc1[nH]c2ccccc2c1CCNCc1ccc(/C=C/C(=O)NO)cc1 + Cc1[nH]c2ccc(F)cc2c1-c1nc2c3cccnc3c3ncccc3c2[nH]1 , what value of viability, T/C is listed for 777334-354-R2-J4-PDC tumor spheroids with HUVEC/MSC, viability?
Result string: 78.4

###

# viability, T/C annotations
# Test system: 777334-354-R2-J4-PDC tumor spheroids with HUVEC/MSC, viability
# Method description: Anticancer human tumor 777334-354-R2-J4-PDC cell line growth inhibition [GQUAD];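 further: spheroids exposed to compounds for 7 days before readout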
# Applied conditions: second compound 0.316 µM; first compound 0.00316 µM; active compounds read low
Just the number please, in %, no unit attached.

Cn1ncnc1[C@H]1c2n[nH]c(=O)c3cc(F)cc(c23)N[C@@H]1c1ccc(F)cc1 + CN(C)c1ccc(Nc2c3ccc(NC(=O)CCN4CCCC4)cc3nc3cc(NC(=O)CCN4CCCC4)ccc23)cc1 ... 87.4
CC[C@@]1(O)C(=O)OCc2c1cc1n(c2=O)Cc2cc3c(CN(C)C)c(O)ccc3nc2-1 + CN(C)c1ccc(Nc2c3ccc(NC(=O)CCN4CCCC4)cc3nc3cc(NC(=O)CCN4CCCC4)ccc23)cc1 ... 90.2
Cc1[nH]c2ccccc2c1CCNCc1ccc(/C=C/C(=O)NO)cc1 + CN(C)c1ccc(Nc2c3ccc(NC(=O)CCN4CCCC4)cc3nc3cc(NC(=O)CCN4CCCC4)ccc23)cc1 ... 88.4

The record that follows has no viability, T/C shown yet.
Query string: What does the record list as viability, T/C for Cc1[nH]c2ccccc2c1CCNCc1ccc(/C=C/C(=O)NO)cc1 + Cc1[nH]c2ccc(F)cc2c1-c1nc2c3cccnc3c3ncccc3c2[nH]1 ?
Result string: 92.2

###

# Test system: 777334-354-R2-J4-PDC tumor spheroids with HUVEC/MSC, viability
# Method description: Anticancer human tumor 777334-354-R2-J4-PDC cell line growth inhibition [GQUAD];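 further: spheroids exposed to compounds for 7 days before readout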
# Applied conditions: second compound 0.1 µM; first compound 1 µM; active compounds read low
# viability, T/C annotations

Query string: What does the record list as viability, T/C for CC(C)(O)C1CCC(Nc2ccc3ncc(-c4cccc(C(F)(F)F)c4)n3n2)CC1 (centres undefined) + Cc1cnc(CNC(=O)c2c(=O)c3ccc(N4CCCN(C)CC4)nc3n3c2sc2ccccc23)cn1 ?
Result string: 43.2%

Query string: What does the record list as viability, T/C for Cc1cccc(N(C)C(=O)C2C(O)CCN2c2nc(C)cc(C(F)(F)F)c2C#N)c1 (centres undefined) + Cc1cnc(CNC(=O)c2c(=O)c3ccc(N4CCCN(C)CC4)nc3n3c2sc2ccccc23)cn1 ?
Result string: 83.5%

Query string: What does the record list as viability, T/C for CC(C)n1c(=O)n(C)c2cnc3cc(F)c(-c4ccc(OCCCN5CCCCC5)nc4)cc3c21 + CN(C)c1ccc(Nc2c3ccc(NC(=O)CCN4CCCC4)cc3nc3cc(NC(=O)CCN4CCCC4)ccc23)cc1 ?
Result string: 104%

Query string: What does the record list as viability, T/C for CC(=O)O[C@H]1C(=O)[C@@]2(C)[C@H]([C@H](OC(=O)c3ccccc3)[C@]3(O)C[C@H](OC(=O)[C@H](O)[C@@H](NC(=O)c4ccccc4)c4ccccc4)C(C)=C1C3(C)C)[C@]1(OC(C)=O)CO[C@@H]1C[C@@H]2O + Cc1cnc(CNC(=O)c2c(=O)c3ccc(N4CCCN(C)CC4)nc3n3c2sc2ccccc23)cn1 ?
Result string: 45.4%

###

# System: 777334-354-R2-J4-PDC tumor spheroids with HUVEC/MSC, viability
# Method description: Anticancer human tumor 777334-354-R2-J4-PDC cell line growth inhibition [GQUAD];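 further: spheroids exposed to compounds for 7 days before readout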
# Applied conditions: second compound 0.316 µM; first compound 0.316 µM; active compounds read low
Grouping by measured viability, T/C is done with the following cut points: low group: < 50%; middle group: ≥ 50% and < 80%; high group: ≥ 80%

Cc1cccc(N(C)C(=O)C2C(O)CCN2c2nc(C)cc(C(F)(F)F)c2C#N)c1 (centres undefined) + Cc1[nH]c2ccc(F)cc2c1-c1nc2c3cccnc3c3ncccc3c2[nH]1 ... high group
O=C(NO)c1cnc(N2CCN(S(=O)(=O)c3ccc4ccccc4c3)CC2)nc1 + CN(C)c1ccc(Nc2c3ccc(NC(=O)CCN4CCCC4)cc3nc3cc(NC(=O)CCN4CCCC4)ccc23)cc1 ... middle group
COc1ccc([C@@H](O)c2cc(-c3ncnc4cc(N5CCOCC5)ccc34)c(F)cc2Cl)nn1 + Cc1cnc(CNC(=O)c2c(=O)c3ccc(N4CCCN(C)CC4)nc3n3c2sc2ccccc23)cn1 ... middle group

Query string: Category lookup for the molecule O=C(NO)c1cnc(N2CCN(S(=O)(=O)c3ccc4ccccc4c3)CC2)nc1 + Cc1cnc(CNC(=O)c2c(=O)c3ccc(N4CCCN(C)CC4)nc3n3c2sc2ccccc23)cn1
Result string: middle group

Query string: Category lookup for the molecule COc1cccc2c1C(=O)c1c(O)c3c(c(O)c1C2=O)CC(O)(C(=O)CO)CC3OC1CC(N)C(O)C(C)O1 (centres undefined) + Cc1[nH]c2ccc(F)cc2c1-c1nc2c3cccnc3c3ncccc3c2[nH]1
Result string: middle group

Query string: Category lookup for the molecule C=CCn1c(=O)c2cnc(Nc3ccc(N4CCN(C)CC4)cc3)nc2n1-c1cccc(C(C)(C)O)n1 + Cc1cnc(CNC(=O)c2c(=O)c3ccc(N4CCCN(C)CC4)nc3n3c2sc2ccccc23)cn1
Result string: middle group

Query string: Category lookup for the molecule C#Cc1c(F)ccc2cc(O)cc(-c3ncc4c(N5CC6CCC(C5)N6)nc(OCC56CCCN5CC(F)C6)nc4c3F)c12 (centres undefined) + CN(C)c1ccc(Nc2c3ccc(NC(=O)CCN4CCCC4)cc3nc3cc(NC(=O)CCN4CCCC4)ccc23)cc1
Result string: low group

Query string: Category lookup for the molecule COc1ncnc(C2CC2)c1-c1ncc2cnn(Cc3ccc(-c4nc(C(F)(F)F)cn4C(C)C)cc3)c2n1 + Cc1cnc(CNC(=O)c2c(=O)c3ccc(N4CCCN(C)CC4)nc3n3c2sc2ccccc23)cn1
Result string: middle group

Query string: Category lookup for the molecule CC(C)(O)C1CCC(Nc2ccc3ncc(-c4cccc(C(F)(F)F)c4)n3n2)CC1 (centres undefined) + Cc1cnc(CNC(=O)c2c(=O)c3ccc(N4CCCN(C)CC4)nc3n3c2sc2ccccc23)cn1
Result string: middle group

Query string: Category lookup for the molecule Nc1ccn(C2OC(CO)C(O)C2(F)F)c(=O)n1 (centres undefined) + CN(C)c1ccc(Nc2c3ccc(NC(=O)CCN4CCCC4)cc3nc3cc(NC(=O)CCN4CCCC4)ccc23)cc1
Result string: low group

Query string: Category lookup for the molecule COc1cc(C2c3cc4c(cc3C(OC3OC5COC(C)OC5C(O)C3O)C3COC(=O)C23)OCO4)cc(OC)c1O (centres undefined) + CN(C)c1ccc(Nc2c3ccc(NC(=O)CCN4CCCC4)cc3nc3cc(NC(=O)CCN4CCCC4)ccc23)cc1
Result string: high group

Query string: Category lookup for the molecule CC(C)n1c(=O)n(C)c2cnc3cc(F)c(-c4ccc(OCCCN5CCCCC5)nc4)cc3c21 + CN(C)c1ccc(Nc2c3ccc(NC(=O)CCN4CCCC4)cc3nc3cc(NC(=O)CCN4CCCC4)ccc23)cc1
Result string: high group

Query string: Category lookup for the molecule Cn1ncnc1[C@H]1c2n[nH]c(=O)c3cc(F)cc(c23)N[C@@H]1c1ccc(F)cc1 + CN(C)c1ccc(Nc2c3ccc(NC(=O)CCN4CCCC4)cc3nc3cc(NC(=O)CCN4CCCC4)ccc23)cc1
Result string: middle group
